Source: patent US20210395344A1

- target or test system: T1, COVID S1 RBM Fc fusion (Antigen 2) (SARS-CoV-2, UniProt P0DTC2 437-508)
- T1 construct: domain: RBM
- test details: phage ELISA
specificity ELISA, percent binding relative to Acro S1 by entry:
Entry rule: numbers only, all in %.

Answered cases to consult:
>>> value_measured("SARS-CoV-2 variant 1-38 (antibody, V domains shown) VH: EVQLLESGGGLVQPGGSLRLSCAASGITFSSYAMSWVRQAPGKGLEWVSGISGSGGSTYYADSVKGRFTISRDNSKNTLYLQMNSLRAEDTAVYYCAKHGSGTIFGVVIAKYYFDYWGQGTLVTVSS VL: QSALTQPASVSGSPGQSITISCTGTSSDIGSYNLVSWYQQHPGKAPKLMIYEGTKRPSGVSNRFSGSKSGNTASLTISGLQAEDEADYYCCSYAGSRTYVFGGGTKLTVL")
101
>>> value_measured("SARS-CoV-2 variant 1-46 (antibody, V domains shown) VH: EVQLLESGGGLVQPGGSLRLSCAASGFTFTSYAMSWVRQAPGKGLEWVSAISGSGGSTYYADSVKGRFTISRDNSKNTLYLQMNSLRAEDTAVYYCANDTSDFCFGYWIFDPWGQGTLVTVSS VL: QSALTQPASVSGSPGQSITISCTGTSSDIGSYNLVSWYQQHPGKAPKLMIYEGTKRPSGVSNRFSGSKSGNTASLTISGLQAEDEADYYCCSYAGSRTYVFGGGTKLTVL")
19.8
>>> value_measured("SARS-CoV-2 variant 1-26 (antibody, V domains shown) VH: EVQLLESGGGLVQPGGSLRLSCAASGFTFSSYAISWVRQAPGKGLEWVSAISGSGYSTYYADSVKGRFTISRDNSKNTLYLQMNSLRAEDTAVYYCARGAPDSSGYYFQGEVYFDYWGQGTLVTVSS VL: QSALTQPASVSGSPGQSITISCTGTSSDVGGYNLVSWYQQHPGKAPKLMIYEGTKRPSGVSNRFSGSKSGNTASLTISGLQAEDEADYYCCSFVRSSAHVVFGGGTKLTVL")
74.7
>>> value_measured("SARS-CoV-2 variant 1-50 (antibody, V domains shown) VH: EVQLLESGGGLVQPGGSLRLSCAASGFTFSSYDMSWVRQAPGKGLEWVSAISGSGGTTYYADSVKGRFTISRDNSKNTLYLQMNSLRAEDTAVYYCARGPLDFWGQGTLVTVSS VL: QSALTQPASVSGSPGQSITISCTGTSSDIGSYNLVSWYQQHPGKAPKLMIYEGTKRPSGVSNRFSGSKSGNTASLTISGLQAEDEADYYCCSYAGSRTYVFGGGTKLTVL")
5.9

Next:
query: Bench note: what specificity ELISA, percent binding relative to Acro S1 did SARS-CoV-2 variant 1-39 (antibody, V domains shown) VH: EVQLLESGGGLVQPGGSLRLSCAASGFTFSSYAMYWVRQAPGKGLEWVTAISGSGGSTFYADSVKGRFTISRDNSKNTLYLQMNSLRAEDTAVYYCTRPPYGYYGDYWGQGTLVTVSS VL: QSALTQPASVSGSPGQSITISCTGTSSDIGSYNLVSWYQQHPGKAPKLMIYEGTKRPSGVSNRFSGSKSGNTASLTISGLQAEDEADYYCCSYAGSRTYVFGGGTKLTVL show?
result: 6.7
